- assay.target: phosphorylation levels of ERK1/2 in AsPC-1 (homozygous KRAS-G12D) cells (Homo sapiens, UniProt P01116, G12D)
- Sequence (P01116 1-186 G12D): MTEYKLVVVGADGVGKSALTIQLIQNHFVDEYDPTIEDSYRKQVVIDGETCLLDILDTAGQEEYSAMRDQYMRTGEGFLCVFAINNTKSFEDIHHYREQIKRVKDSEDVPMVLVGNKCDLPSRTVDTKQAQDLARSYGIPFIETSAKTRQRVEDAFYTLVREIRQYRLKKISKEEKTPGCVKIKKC
- assay.remarks: Cellular phospho-ERK assay in AsPC-1 cells (Alpha Screen), assay medium without fetal bovine serum
- recorded.conditions: phospho-ERK AlphaScreen, 18 h
*1 amine or outer side, *2 acyl side, *3 side chain or, on linkers, in order; H or OH if unused. Where a SMILES comes first, the peptide text is derived from it. [ ]: non-standard residue; d: D form. Ala(pyrimidin-5-yl) = N[C@@H](Cc1cncnc1)C(=O)O; X26 = Cn1cc(C[C@H](N[*:1])C(=O)[*:2])cn1; Nle(5,5-F2) = CC(F)(F)CC[C@H](N)C(=O)O; Phe(2-F) = N[C@@H](Cc1ccccc1F)C(=O)O; NMe3Pal = CN[C@@H](Cc1cccnc1)C(=O)O; NMeY = CN[C@@H](Cc1ccc(O)cc1)C(=O)O; X1 = O=C(C12CC(CN[*:1])(C1)C2)[*:2]; Ala(cPr) = N[C@@H](CC1CC1)C(=O)O; NMeF = CN[C@@H](Cc1ccccc1)C(=O)O; PhLac = O=C(O)[C@@H](O)Cc1ccccc1; 3Pal = N[C@@H](Cc1cccnc1)C(=O)O; NMeA = CN[C@@H](C)C(=O)O; Nle = CCCC[C@H](N)C(=O)O
quantity.kind: pEC50
pEC50 is a log-scale quantity: -log10 of the concentration expressed in molar.

Q) Requested read-out: pEC50. Entry: CCCC[C@@H]1NC(=O)[C@H](Cc2cncnc2)NC(=O)[C@H](C)N(C)C(=O)[C@H](Cc2ccccc2)OC(=O)C23CC(CNC(=O)[C@H](Cc4ccc(OC)cc4)N(C)C(=O)[C@H](CCCC)NC(=O)[C@H](Cc4ccccc4F)NC1=O)(C2)C3 [compound 175] (cyclo([NMeA][Ala(pyrimidin-5-yl)][Nle][Phe(2-F)][Nle][NMeY](Me)[X1][PhLac]))
A) 6.36

Q) Moving on to CCCC[C@@H]1NC(=O)[C@H](Cc2cnn(C)c2)NC(=O)[C@H](C)N(C)C(=O)[C@H](Cc2ccccc2)OC(=O)C23CC(CNC(=O)[C@H](Cc4cccnc4)N(C)C(=O)[C@H](CCCC)NC(=O)[C@H](Cc4ccccc4F)NC1=O)(C2)C3 [compound 400] (cyclo([NMe3Pal][X1][PhLac][NMeA][X26][Nle][Phe(2-F)][Nle]))
A) 4.50

Q) Same again, this time with C[C@H]1C(=O)N[C@@H](Cc2cccnc2)C(=O)N[C@@H](CC2CC2)C(=O)N[C@@H](Cc2ccccc2F)C(=O)N[C@@H](CCC(C)(F)F)C(=O)N(C)[C@@H](Cc2ccccc2)C(=O)NCC23CC(C2)(C3)C(=O)O[C@@H](Cc2ccccc2)C(=O)N1C [compound 289] (cyclo([3Pal][Ala(cPr)][Phe(2-F)][Nle(5,5-F2)][NMeF][X1][PhLac][NMeA]))
A) 5.97

----------
- assay.target: phosphorylation levels of ERK1/2 in AsPC-1 (homozygous KRAS-G12D) cells (Homo sapiens, UniProt P01116, G12D)
- assay.remarks: Cellular phospho-ERK assay in AsPC-1 cells (Alpha Screen), assay medium without fetal bovine serum;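 further: signal taken as phospho-ERK over total ERK per well, both detected in one multiplex bead assay, EC50 from four-parameter logistic fit of dose-response curves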
- recorded.conditions: phospho-ERK AlphaScreen, 18 h
*1 amine or outer side, *2 acyl side, *3 side chain or, on linkers, in order; H or OH if unused. Where a SMILES comes first, the peptide text is derived from it. [ ]: non-standard residue; d: D form. Ala(pyrimidin-5-yl) = N[C@@H](Cc1cncnc1)C(=O)O; X8 = CN([C@@H](Cc1ccc(F)nc1)C(=O)[*:2])[*:1]; X43 = CN([C@@H](Cc1cnccc1F)C(=O)[*:2])[*:1]; Phe(2-F) = N[C@@H](Cc1ccccc1F)C(=O)O; Abu(4,4-F2) = N[C@@H](CC(F)F)C(=O)O; X1 = O=C(C12CC(CN[*:1])(C1)C2)[*:2]; Ala(cPr) = N[C@@H](CC1CC1)C(=O)O; NMeF = CN[C@@H](Cc1ccccc1)C(=O)O; PhLac = O=C(O)[C@@H](O)Cc1ccccc1; hLeu = CC(C)CC[C@H](N)C(=O)O; NMeA = CN[C@@H](C)C(=O)O
I'd be grateful if you could share measured EC50 for these entries.
State just the number; it will be interpreted in nM.

Q) Consider the molecule shown here: CC(C)CC[C@@H]1NC(=O)[C@H](Cc2ccccc2F)NC(=O)[C@H](CC2CC2)NC(=O)[C@H](Cc2cncnc2)NC(=O)[C@H](C)N(C)C(=O)[C@H](Cc2ccccc2)OC(=O)C23CC(CNC(=O)[C@H](Cc4ccc(F)nc4)N(C)C1=O)(C2)C3 [compound 339] (cyclo([Ala(cPr)][Phe(2-F)][hLeu][X8][X1][PhLac][NMeA][Ala(pyrimidin-5-yl)])) What is its recorded EC50?
A) 1650

Q) Do the same for CC(C)CC[C@@H]1NC(=O)[C@H](Cc2ccccc2F)NC(=O)[C@H](CC2CC2)NC(=O)[C@H](Cc2cncnc2)NC(=O)[C@H](C)N(C)C(=O)[C@H](Cc2ccccc2)OC(=O)C23CC(CNC(=O)[C@H](Cc4cnccc4F)N(C)C1=O)(C2)C3 [compound 338] (cyclo([Ala(cPr)][Phe(2-F)][hLeu][X43][X1][PhLac][NMeA][Ala(pyrimidin-5-yl)])) please
A) 1860

Q) Next molecule up: CC(C)CC[C@@H]1NC(=O)[C@H](Cc2ccccc2F)NC(=O)[C@H](CC(F)F)NC(=O)[C@H](Cc2cncnc2)NC(=O)[C@H](C)N(C)C(=O)[C@H](Cc2ccccc2)OC(=O)C23CC(CNC(=O)[C@H](Cc4ccccc4)N(C)C1=O)(C2)C3 [compound 304] (cyclo([NMeA][Ala(pyrimidin-5-yl)][Abu(4,4-F2)][Phe(2-F)][hLeu][NMeF][X1][PhLac]))
A) 1870
